meta.source: the kinase profiling compilation of Christmann-Franck et al. (2016)

# Study system: UniProt:Q86Z02
# Sequence (Q86Z02 whole entry, looked up): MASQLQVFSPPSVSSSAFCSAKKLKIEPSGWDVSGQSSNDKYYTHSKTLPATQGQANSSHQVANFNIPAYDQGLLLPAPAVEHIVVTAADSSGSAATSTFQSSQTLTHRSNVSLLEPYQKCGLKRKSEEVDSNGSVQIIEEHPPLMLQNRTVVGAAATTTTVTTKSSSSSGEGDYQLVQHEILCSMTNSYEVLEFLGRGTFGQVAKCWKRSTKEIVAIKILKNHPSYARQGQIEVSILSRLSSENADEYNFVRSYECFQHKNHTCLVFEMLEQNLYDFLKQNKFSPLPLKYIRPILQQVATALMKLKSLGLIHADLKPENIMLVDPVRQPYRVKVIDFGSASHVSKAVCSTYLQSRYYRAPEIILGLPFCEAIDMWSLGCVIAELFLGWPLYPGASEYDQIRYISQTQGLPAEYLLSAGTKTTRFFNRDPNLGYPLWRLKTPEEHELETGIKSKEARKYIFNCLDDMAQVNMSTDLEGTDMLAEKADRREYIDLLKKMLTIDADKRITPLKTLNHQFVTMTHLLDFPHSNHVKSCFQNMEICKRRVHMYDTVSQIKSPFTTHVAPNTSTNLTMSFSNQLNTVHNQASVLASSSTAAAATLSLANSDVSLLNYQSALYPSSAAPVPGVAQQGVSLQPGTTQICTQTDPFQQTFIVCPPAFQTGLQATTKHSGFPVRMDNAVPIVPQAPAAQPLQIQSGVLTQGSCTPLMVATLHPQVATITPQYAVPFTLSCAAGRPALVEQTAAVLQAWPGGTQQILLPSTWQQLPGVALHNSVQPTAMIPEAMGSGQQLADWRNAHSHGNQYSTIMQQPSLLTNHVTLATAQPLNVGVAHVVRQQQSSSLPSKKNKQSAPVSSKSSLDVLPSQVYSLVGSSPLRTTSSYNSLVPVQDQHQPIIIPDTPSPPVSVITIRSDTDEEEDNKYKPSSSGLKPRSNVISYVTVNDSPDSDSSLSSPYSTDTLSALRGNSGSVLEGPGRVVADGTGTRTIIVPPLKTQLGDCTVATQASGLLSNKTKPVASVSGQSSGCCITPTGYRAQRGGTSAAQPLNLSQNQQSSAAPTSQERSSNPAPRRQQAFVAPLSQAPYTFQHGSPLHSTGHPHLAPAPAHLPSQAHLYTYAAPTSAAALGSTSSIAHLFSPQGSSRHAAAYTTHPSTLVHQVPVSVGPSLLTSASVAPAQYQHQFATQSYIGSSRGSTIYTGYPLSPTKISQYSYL
# Procedure summary: KINOMEscan competition binding
# Condition: compound 10.0 µM
Measured attribute: kinase still bound, per cent of control (%)

mol_smiles=Cc1ccc(NC(=O)c2cccc(C(C)(C)C#N)c2)cc1Nc1ccc2ncn(C)c(=O)c2c1 study_system=UniProt:Q86Z02 value_measured=100
mol_smiles=Cc1ccc2nc(NCCN)c3ncc(C)n3c2c1 study_system=UniProt:Q86Z02 value_measured=21
mol_smiles=Cc1ccc(C(=O)Nc2cccc(C(F)(F)F)c2)cc1Nc1cncc(C(N)=O)c1 study_system=UniProt:Q86Z02 value_measured=100
mol_smiles=COc1cc(C(=O)NC2CCN(C)CC2)ccc1Nc1ncc2c(n1)N(C1CCCC1)CCC(=O)N2C(C)C study_system=UniProt:Q86Z02 value_measured=100
mol_smiles=O=C(NC1CC1)c1cccc(-c2ccc3c(NC(=O)C4CC4)n[nH]c3c2)c1 study_system=UniProt:Q86Z02 value_measured=28
mol_smiles=Cc1cc([C@@H](C)Nc2ccccc2C(=O)O)c2nc(N3CCOCC3)cc(=O)n2c1 study_system=UniProt:Q86Z02 value_measured=100

###

# Study system: ACVRL1 (human) (UniProt P37023)
# Sequence (P37023 whole entry, looked up): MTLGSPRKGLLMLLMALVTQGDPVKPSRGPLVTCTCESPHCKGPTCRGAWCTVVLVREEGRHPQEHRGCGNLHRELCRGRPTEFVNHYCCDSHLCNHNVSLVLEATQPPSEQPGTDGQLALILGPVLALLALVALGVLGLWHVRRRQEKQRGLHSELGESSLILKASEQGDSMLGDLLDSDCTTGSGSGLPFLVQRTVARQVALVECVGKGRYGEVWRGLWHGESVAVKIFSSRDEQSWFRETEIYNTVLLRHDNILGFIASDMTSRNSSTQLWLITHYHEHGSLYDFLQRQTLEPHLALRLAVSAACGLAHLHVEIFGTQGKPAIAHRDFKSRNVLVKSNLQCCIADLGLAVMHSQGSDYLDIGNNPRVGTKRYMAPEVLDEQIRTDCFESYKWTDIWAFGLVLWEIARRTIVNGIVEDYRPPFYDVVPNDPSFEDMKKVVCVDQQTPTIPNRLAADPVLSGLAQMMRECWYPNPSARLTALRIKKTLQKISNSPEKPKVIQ
# Procedure summary: KINOMEscan competition binding
# Condition: compound 10.0 µM
Measured attribute: kinase still bound, per cent of control (%)

compound=COc1cc(C(=O)NC2CCN(C)CC2)ccc1Nc1ncc2c(n1)N(C1CCCC1)CCC(=O)N2C(C)C study_system="ACVRL1 (human) (UniProt P37023)" value_measured=100
compound=CN(C)C/C=C/C(=O)Nc1cccc(Nc2ncc3c(n2)N(C)c2ccccc2C(=O)N3C)c1 study_system="ACVRL1 (human) (UniProt P37023)" value_measured=100
compound=CCCS(=O)(=O)Nc1ccc(F)c(C(=O)c2c[nH]c3ncc(-c4ccc(Cl)cc4)cc23)c1F study_system="ACVRL1 (human) (UniProt P37023)" value_measured=65
compound=O=C(NC1CC1)c1cccc(-c2ccc3c(NC(=O)C4CC4)n[nH]c3c2)c1 study_system="ACVRL1 (human) (UniProt P37023)" value_measured=100
compound=N#Cc1c(NC(=O)c2cccc3ccccc23)sc2c1CCCC2 study_system="ACVRL1 (human) (UniProt P37023)" value_measured=100
compound=Cc1ccc(NC(=O)c2cccc(C(C)(C)C#N)c2)cc1Nc1ccc2ncn(C)c(=O)c2c1 study_system="ACVRL1 (human) (UniProt P37023)" value_measured=100
compound=C=CC(=O)Nc1cccc(Oc2nc(Nc3ccc(N4CCN(C)CC4)cc3OC)ncc2Cl)c1 study_system="ACVRL1 (human) (UniProt P37023)" value_measured=100
compound=C[C@@H](Oc1cc(-n2cnc3ccc(CN4CCN(C)CC4)cc32)sc1C(N)=O)c1ccccc1C(F)(F)F study_system="ACVRL1 (human) (UniProt P37023)" value_measured=100
compound=O=C1Nc2ccc(I)cc2/C1=C/c1cc(Br)c(O)c(Br)c1 study_system="ACVRL1 (human) (UniProt P37023)" value_measured=100
compound=CCOc1cc2ncc(C#N)c(Nc3ccc(OCc4ccccn4)c(Cl)c3)c2cc1NC(=O)/C=C/CN(C)C study_system="ACVRL1 (human) (UniProt P37023)" value_measured=100
compound=C=CC(=O)Nc1cccc(Nc2nc(N[C@H]3CC[C@H](N(C)C)CC3)nc3c2ncn3C(C)C)c1 study_system="ACVRL1 (human) (UniProt P37023)" value_measured=100
compound=CC[C@@H]1C(=O)N(C)c2cnc(Nc3ccc(C(=O)NC4CCN(C)CC4)cc3OC)nc2N1C1CCCC1 study_system="ACVRL1 (human) (UniProt P37023)" value_measured=100
compound=Nc1ccc(-c2ccc3ncc4ccc(=O)n(-c5cccc(C(F)(F)F)c5)c4c3c2)cn1 study_system="ACVRL1 (human) (UniProt P37023)" value_measured=59
compound=O=C(O)c1ccc(Nc2ncc3c(n2)-c2ccc(Cl)cc2C(c2c(F)cccc2F)=NC3)cc1 study_system="ACVRL1 (human) (UniProt P37023)" value_measured=64
compound=Cc1cc([C@@H](C)Nc2ccccc2C(=O)O)c2nc(N3CCOCC3)cc(=O)n2c1 study_system="ACVRL1 (human) (UniProt P37023)" value_measured=89
compound="COc1cc(C(=O)NC2CCN(C)CC2)ccc1Nc1ncc2c(n1)N(C1CCCC1)C(C)CC(=O)N2C (centres undefined)" study_system="ACVRL1 (human) (UniProt P37023)" value_measured=100
compound=OCCCNc1cc(-c2ccnc(Nc3cccc(Cl)c3)n2)ccn1 study_system="ACVRL1 (human) (UniProt P37023)" value_measured=100
compound=Cc1ccc2nc(NCCN)c3ncc(C)n3c2c1 study_system="ACVRL1 (human) (UniProt P37023)" value_measured=93
compound=Cc1ccc(C(=O)Nc2cccc(C(F)(F)F)c2)cc1Nc1cncc(C(N)=O)c1 study_system="ACVRL1 (human) (UniProt P37023)" value_measured=100
